tested on: Jump-In T-REx CHO-K1 BLA cells; test: cells; format: cell-based; conditions: 0% FBS 4Hr; read-out: TETCHO: Counterscreen EC50
pEC50: −log10 of the molar value. Positions of bridges follow the written chain, without caps; N, C: chain ends. Non-standard residues stand in square brackets, D forms with d. Residues, ends and D or L forms follow the SMILES beside them. R8 = C=CCCCCCC[C@@](C)(N)C(=O)O; S5 = C=CCCC[C@](C)(N)C(=O)O
MEASURED QUANTITY: pEC50

Query CC(=O)N[C@@H](CC(C)C)C(=O)N[C@H](C(=O)N[C@@H](Cc1ccccc1)C(=O)N[C@]1(C)CCCCCCC=CCCC[C@@](C)(C(=O)N[C@@H](C)C(=O)N[C@@H](C)C(=O)N[C@@H](C)C(=O)N[C@@H](C)C(=O)N[C@@H](C)C(=O)N[C@@H](C)C(N)=O)NC(=O)[C@H](CC(C)C)NC(=O)[C@H](CCC(N)=O)NC(=O)[C@H](C)NC(=O)[C@H](Cc2c[nH]c3ccccc23)NC(=O)[C@H](Cc2ccc(O)cc2)NC(=O)[C@H](CCC(=O)O)NC1=O)[C@@H](C)O [MP-688] (Ac-LTF[R8]EYWAQL[S5]AAAAAA-NH2; staple 4-11) yields pEC50 of < 4.30

====

assay: Lactate dehydrogenase (LDH) release assay; format: cell-based; conditions: LDH: Cytotoxicity assay: EC50
Positions of bridges follow the written chain, without caps; N, C: chain ends. Non-standard residues stand in square brackets, D forms with d. Residues, ends and D or L forms follow the SMILES beside them. Lys(N3) = [N-]=[N+]=NCCCC[C@H](N)C(=O)O; R8 = C=CCCCCCC[C@@](C)(N)C(=O)O; Cba = N[C@@H](CC1CCC1)C(=O)O; S5 = C=CCCC[C@](C)(N)C(=O)O; βAla = NCCC(=O)O
MEASURED QUANTITY: EC50

Query CC(=O)N[C@@H](CCCCN=[N+]=[N-])C(=O)NCCC(=O)N[C@@H](CC(C)C)C(=O)N[C@H](C(=O)N[C@@H](Cc1ccccc1)C(=O)N[C@]1(C)CCCCCCC=CCCC[C@@](C)(C(=O)N[C@@H](CO)C(=O)N[C@@H](C)C(=O)N[C@@H](C)C(N)=O)NC(=O)[C@H](CC2CCC2)NC(=O)[C@H](C)NC(=O)[C@H](CCC(N)=O)NC(=O)[C@H](Cc2c[nH]c3ccccc23)NC(=O)[C@H](Cc2ccc(O)cc2)NC(=O)[C@H](CCC(=O)O)NC1=O)[C@@H](C)O [MP-4203] (Ac-[Lys(N3)][βAla]LTF[R8]EYWQA[Cba][S5]SAA-NH2; staple 6-13) yields EC50 of > 50.7 µM

====

target: human Mdm2 1–125 (Homo sapiens); construct: GST (N); His6 (internal); TEV cleavage site (ENLYFQG) (internal); made in house; host or cells: BL21 (DE3) Rosetta T1R Escherichia coli; assay: Mdm2 binding by competitive fluorescence anisotropy assay (FP binding); conditions: read-out: FP binding assay KD
Sequence (Q00987 with tags, fused parts or gaps): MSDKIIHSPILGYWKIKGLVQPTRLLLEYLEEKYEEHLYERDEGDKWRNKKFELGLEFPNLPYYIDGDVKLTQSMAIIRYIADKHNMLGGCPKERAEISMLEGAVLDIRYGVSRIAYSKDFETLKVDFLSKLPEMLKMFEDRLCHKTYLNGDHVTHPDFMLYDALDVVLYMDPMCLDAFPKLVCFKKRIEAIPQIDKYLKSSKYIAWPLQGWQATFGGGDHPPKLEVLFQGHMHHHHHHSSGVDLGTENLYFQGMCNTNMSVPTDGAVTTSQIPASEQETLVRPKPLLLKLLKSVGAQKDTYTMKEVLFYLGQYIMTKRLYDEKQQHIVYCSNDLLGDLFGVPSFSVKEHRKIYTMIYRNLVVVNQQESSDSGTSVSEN
Positions of bridges follow the written chain, without caps; N, C: chain ends. Non-standard residues stand in square brackets, D forms with d. Residues, ends and D or L forms follow the SMILES beside them. 2Nal = N[C@@H](Cc1ccc2ccccc2c1)C(=O)O; R8 = C=CCCCCCC[C@@](C)(N)C(=O)O; S5 = C=CCCC[C@](C)(N)C(=O)O
Assign labels as follows, please: yes (1) for Kd below 2000 nM; no (0) for Kd equal to or exceeding 2000 nM.

Dear colleague, could you confirm whether Kd of CC(=O)N[C@@H](CC(C)C)C(=O)N[C@H](C(=O)N[C@@H](Cc1ccccc1)C(=O)N[C@]1(C)CCCCCCC=CCCC[C@@](C)(C(=O)N[C@@H](CO)C(=O)N[C@@H](C)C(=O)N[C@@H](C)C(N)=O)NC(=O)[C@H](CC(C)C)NC(=O)[C@H](CCC(N)=O)NC(=O)[C@H](C)NC(=O)[C@H](Cc2c[nH]c3ccccc23)NC(=O)[C@H](Cc2ccc(O)cc2)NC(=O)[C@H](CCC(=O)O)NC1=O)[C@@H](C)O [MP-154] falls below 2000 nM? Thanks.
yes (1)

Dear colleague, could you confirm whether Kd of CC(=O)N[C@H](C(=O)N[C@@H](CO)C(=O)N[C@@H](Cc1ccccc1)C(=O)NC(C)(C)C(=O)N[C@@H](CCC(=O)O)C(=O)N[C@@H](Cc1ccc(O)cc1)C(=O)N[C@@H](Cc1c[nH]c2ccccc12)C(=O)N[C@@H](C)C(=O)N[C@@H](CC(C)C)C(=O)N[C@@H](CC(C)C)C(=O)NC(C)(C)C(N)=O)[C@@H](C)O [MP-153] falls below 2000 nM? Thanks.
yes (1)

Dear colleague, could you confirm whether Kd of CC(=O)N[C@H](C(=O)N[C@@H](CO)C(=O)N[C@@H](Cc1ccccc1)C(=O)N[C@]1(C)CCCCCCC=CCCC[C@@](C)(C(N)=O)NC(=O)[C@H](CC(C)C)NC(=O)[C@H](CC(C)C)NC(=O)[C@H](C)NC(=O)[C@H](Cc2c[nH]c3ccccc23)NC(=O)[C@H](Cc2ccc(O)cc2)NC(=O)[C@H](Cc2c[nH]cn2)NC1=O)[C@@H](C)O [MP-138] (Ac-TSF[R8]HYWALL[S5]-NH2; staple 4-11) falls below 2000 nM? Thanks.
yes (1)

Dear colleague, could you confirm whether Kd of CC(=O)N[C@H](C(=O)N[C@@H](CO)C(=O)N[C@@H](Cc1ccc2ccccc2c1)C(=O)N[C@]1(C)CCCCCCC=CCCC[C@@](C)(C(N)=O)NC(=O)[C@H](CC(C)C)NC(=O)[C@H](CC(C)C)NC(=O)[C@H](C)NC(=O)[C@H](Cc2c[nH]c3ccccc23)NC(=O)[C@H](Cc2ccc(O)cc2)NC(=O)[C@H](CCC(=O)O)NC1=O)[C@@H](C)O [MP-145] (Ac-TS[2Nal][R8]EYWALL[S5]-NH2; staple 4-11) falls below 2000 nM? Thanks.
no (0)

Dear colleague, could you confirm whether Kd of CC(C)C[C@@H]1NC(=O)[C@H](C)NC(=O)[C@H](Cc2c[nH]c3ccccc23)NC(=O)[C@H](Cc2ccc(O)cc2)NC(=O)[C@H](CCC(=O)O)NC(=O)[C@](C)(NC(=O)[C@H](Cc2ccccc2)NC(=O)[C@H](CO)NC(=O)[C@@H](NC(=O)[C@H](CO)NC(=O)CNC(=O)[C@@H](N)CO)[C@@H](C)O)CCCCCCC=CCCC[C@@](C)(C(N)=O)NC(=O)[C@H](CC(C)C)NC1=O [MP-132] falls below 2000 nM? Thanks.
yes (1)

Dear colleague, could you confirm whether Kd of CC(=O)N[C@@H](CC(C)C)C(=O)N[C@H](C(=O)N[C@@H](Cc1ccccc1)C(=O)N[C@]1(C)CCCCCCC=CCCC[C@@](C)(C(=O)N[C@@H](CO)C(=O)N[C@@H](C)C(=O)N[C@@H](C)C(N)=O)NC(=O)[C@@H](CC2CCC2)NC(=O)[C@H](CC(C)C)NC(=O)[C@H](CCC(N)=O)NC(=O)[C@H](Cc2c[nH]c3ccccc23)NC(=O)[C@H](Cc2ccc(O)cc2)NC(=O)[C@H](CCC(=O)O)NC1=O)[C@@H](C)O [MP-009] falls below 2000 nM? Thanks.
no (0)

Dear colleague, could you confirm whether Kd of CC(=O)N[C@H](C(=O)N[C@@H](CO)C(=O)N[C@@H](Cc1ccccc1)C(=O)N[C@]1(C)CCCCCCC=CCCC[C@@](C)(C(=O)N[C@@H](CCC(=O)O)C(N)=O)NC(=O)[C@H](CC(C)C)NC(=O)[C@H](CC(C)C)NC(=O)[C@H](C)NC(=O)[C@H](Cc2c[nH]c3ccccc23)NC(=O)[C@H](Cc2ccc(O)cc2)NC(=O)[C@H](CCC(=O)O)NC1=O)[C@@H](C)O [MP-139] falls below 2000 nM? Thanks.
yes (1)

Dear colleague, could you confirm whether Kd of CC(=O)N[C@@H](CCCCN)C(=O)NCCCCCC(=O)N[C@H](C(=O)N[C@@H](CO)C(=O)N[C@@H](Cc1ccccc1)C(=O)N[C@]1(C)CCCCCCC=CCCC[C@@](C)(C(=O)N[C@@H](CCC(=O)O)C(=O)N[C@@H](CC(N)=O)C(=O)N[C@@H](Cc2ccccc2)C(N)=O)NC(=O)[C@H](CC(C)C)NC(=O)[C@H](CC(C)C)NC(=O)[C@H](C)NC(=O)[C@H](Cc2c[nH]c3ccccc23)NC(=O)[C@H](Cc2ccc(O)cc2)NC(=O)[C@H](CCC(=O)O)NC1=O)[C@@H](C)O [MP-6210] falls below 2000 nM? Thanks.
yes (1)

Dear colleague, could you confirm whether Kd of CC(=O)N[C@H](C(=O)N[C@@H](CO)C(=O)N[C@@H](Cc1ccc2ccccc2c1)C(=O)N[C@]1(C)CCCCCCC=CCCC[C@@](C)(C(=O)N[C@@H](CO)C(=O)N[C@@H](C)C(=O)N[C@@H](C)C(=O)N[C@@H](CCC(=O)O)C(N)=O)NC(=O)[C@H](CC(C)C)NC(=O)[C@H](CC(C)C)NC(=O)[C@H](C)NC(=O)[C@H](Cc2c[nH]c3ccccc23)NC(=O)[C@H](Cc2ccc(O)cc2)NC(=O)[C@H](CCC(=O)O)NC1=O)[C@@H](C)O [MP-144] (Ac-TS[2Nal][R8]EYWALL[S5]SAAE-NH2; staple 4-11) falls below 2000 nM? Thanks.
no (0)

Dear colleague, could you confirm whether Kd of CC(=O)N[C@H](C(=O)N[C@@H](CO)C(=O)N[C@@H](Cc1ccc2ccccc2c1)C(=O)N[C@]1(C)CCCCCCC=CCCC[C@@](C)(C(=O)N[C@@H](CCC(=O)O)C(N)=O)NC(=O)[C@H](CC(C)C)NC(=O)[C@H](CC(C)C)NC(=O)[C@H](C)NC(=O)[C@H](Cc2c[nH]c3ccccc23)NC(=O)[C@H](Cc2ccc(O)cc2)NC(=O)[C@H](CCC(=O)O)NC1=O)[C@@H](C)O [MP-146] (Ac-TS[2Nal][R8]EYWALL[S5]E-NH2; staple 4-11) falls below 2000 nM? Thanks.
yes (1)
